Data origin, for the record: paper doi:10.1101/2024.10.29.620944v2

Emax reference
# ASSAYED TARGET: rat TRPV1 receptor (rTRPV1) (Rattus norvegicus, UniProt O35433)
# Construct: rat TRPV1 stably expressed under doxycycline control (Tet-on) in Flp-In T-REx-293 cells (irTRPV1-FlpIn293); homotetramer
# Sequence (O35433 whole entry): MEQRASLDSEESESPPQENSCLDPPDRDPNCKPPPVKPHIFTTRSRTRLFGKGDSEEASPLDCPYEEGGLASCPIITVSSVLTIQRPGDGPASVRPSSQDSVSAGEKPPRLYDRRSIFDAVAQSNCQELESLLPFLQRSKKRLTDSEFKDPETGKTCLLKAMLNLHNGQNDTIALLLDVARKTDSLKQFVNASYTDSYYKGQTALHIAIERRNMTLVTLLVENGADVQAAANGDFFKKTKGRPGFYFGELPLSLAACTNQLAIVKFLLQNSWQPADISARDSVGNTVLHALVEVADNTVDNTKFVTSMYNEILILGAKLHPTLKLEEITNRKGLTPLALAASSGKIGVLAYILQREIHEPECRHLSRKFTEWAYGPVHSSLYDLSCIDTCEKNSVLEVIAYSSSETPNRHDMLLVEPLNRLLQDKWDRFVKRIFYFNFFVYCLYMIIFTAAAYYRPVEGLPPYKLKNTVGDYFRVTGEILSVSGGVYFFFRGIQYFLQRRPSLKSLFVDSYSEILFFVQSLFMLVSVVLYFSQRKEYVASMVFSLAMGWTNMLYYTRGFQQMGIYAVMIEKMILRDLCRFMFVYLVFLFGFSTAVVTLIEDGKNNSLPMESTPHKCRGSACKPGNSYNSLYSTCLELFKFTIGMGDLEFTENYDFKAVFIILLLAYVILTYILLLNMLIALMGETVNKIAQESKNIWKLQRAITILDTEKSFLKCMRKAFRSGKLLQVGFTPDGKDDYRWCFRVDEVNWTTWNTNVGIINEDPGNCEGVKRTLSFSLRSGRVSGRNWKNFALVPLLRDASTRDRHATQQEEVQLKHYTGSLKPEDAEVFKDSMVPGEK
# ASSAY: cell-based
# CONDITION DETAILS: Flp-In-T-REx-293; read-out: Top

MOLECULE	Emax / %
COc1cc(CNC(=O)CCCCC2OC2C(C)C)ccc1O (centres unmarked) [compound 32, Epicapsaicin]	110
COc1cc(CNC(=O)CCCC/C=C/C(C)C)cc(-c2cc(CNC(=O)CCCCCCC(C)C)cc(OC)c2O)c1O [compound 23, 6″,7″-Dihydro-5′,5‴-dicapsaicin]	90.7
COc1cc(CNC(=O)CCCC/C=C/C(C)CO)ccc1O (centres unmarked) [compound 22, ω-Hydroxycapsaicin]	90
COc1cc(CNC(=O)C=CC=CC(C)C)ccc1O [compound 35, N-vanillyl 6-Methyl-2,4-heptadienamide]	77.8
COc1cc(CNC(=O)CCCCC(C)C)ccc1O [compound 27, Nornordihydrocapsaicin]	94.8
CCCCCCCCCC(=O)NCc1ccc(O)c(OC)c1 [compound 14, N-Vanillyldecanamide]	114
COc1cc(CNC(=O)CCCCCC(O)C(C)C)ccc1O (centres unmarked) [compound 34, N-vanillyl-7-hydroxy-8-methylnonamide]	90.6
COc1cc(CNC(=O)CC/C=C/C=C/C(C)C)ccc1O [compound 16, N-vanillyl-4E,6E-dien-8-methylnonanamide]	94.3
CCCCCCC(=O)NCc1ccc(O)c(OC)c1 [compound 26, N-Heptanoate vanillylamide]	114
COc1cc(CNC(=O)CCCC/C=C/C(C)C)cc(-c2cc(CNC(=O)CCCC/C=C/C(C)C)cc(OC)c2O)c1O	83.3
COc1cc(CNC(=O)CCCCCCCC(C)O)ccc1O (centres unmarked) [compound 33, N-vanillyl-9-hydroxydecanamide]	96.5
CCCCCCCC(=O)NCc1ccc(O)c(OC)c1 [compound 13, N-vanillyl octanamide]	93.7
COc1cc(CNC(=O)CC/C=C/C(C)C)ccc1O	77.8
COc1cc(CNC(=O)CC(C)C)ccc1O	80
CCCCCCCC/C=C\CCCCCCCC(=O)NCc1ccc(O)c(OC)c1	40.4
COc1cc(CNC(=O)CCCCCC(=O)C(C)C)ccc1O	84.2
COc1cc(CNC(=O)CCCC/C=C/C(C)C)ccc1O[C@@H]1O[C@H](CO)[C@@H](O)[C@H](O)[C@H]1O [compound 24, Capsaicin β-D-glucopyranoside]	102

###

pEC50 reference
# ASSAYED TARGET: rat TRPV1 receptor (rTRPV1) (Rattus norvegicus, UniProt O35433)
# Construct: rat TRPV1 stably expressed under doxycycline control (Tet-on) in Flp-In T-REx-293 cells (irTRPV1-FlpIn293); homotetramer
# ASSAY: Fluo-4 calcium influx assay, FDSS, irTRPV1-FlpIn293 cells
# Format: cell-based
# CONDITION DETAILS: read-out: EC50
pEC50: −log10 of the molar value.

COMPOUND	pEC50
COc1cc(CNC(=O)CCCCC2OC2C(C)C)ccc1O (stereo not shown) [compound 32, Epicapsaicin]	6.22
CCCCCCCC(=O)NCc1ccc(O)c(OC)c1 [compound 13, N-vanillyl octanamide]	6.82
COc1cc(CNC(=O)CCCCCCC(C)C)ccc1O [compound 2, Dihydrocapsaicin]	7.30
COc1cc(CNC(=O)CCCCC(C)C)ccc1O [compound 27, Nornordihydrocapsaicin]	5.98

###

# ASSAYED TARGET: rat TRPV1 receptor (rTRPV1) (Rattus norvegicus)
# Construct: rat TRPV1 stably expressed under doxycycline control (Tet-on) in Flp-In T-REx-293 cells (irTRPV1-FlpIn293); homotetramer
# ASSAY: cell-based
# Design: species or system irTRPV1-FlpIn293 (HEK293); Fluo-4 calcium influx, FDSS, TRPV1 activation

MOLECULE	UNIT STRING	EC50
COc1cc(COC(=O)CCCC/C=C/C(C)C)ccc1O [compound 39, capsiate]	µM	491

###

# ASSAYED TARGET: rat TRPV1 receptor (rTRPV1) (Rattus norvegicus, UniProt O35433)
# Construct: rat TRPV1 stably expressed under doxycycline control (Tet-on) in Flp-In T-REx-293 cells (irTRPV1-FlpIn293); homotetramer
# ASSAY: Fluo-4 calcium influx assay, FDSS, irTRPV1-FlpIn293 cells
# Type: cell-based
# CONDITION DETAILS: read-out: EC50
TEST READOUT: log10 of EC50 (log10 of the value in µM)

COMPOUND	ASSAYED TARGET	TEST READOUT	MEASURED VALUE
CCCCCCC(=O)NCc1ccc(O)c(OC)c1 [compound 26, N-Heptanoate vanillylamide]	rat TRPV1 receptor (rTRPV1) (Rattus norvegicus, UniProt O35433)	log10 of EC50	0.26
COc1cc(CNC(=O)C=CC=CC(C)C)ccc1O [compound 35, N-vanillyl 6-Methyl-2,4-heptadienamide]	rat TRPV1 receptor (rTRPV1) (Rattus norvegicus, UniProt O35433)	log10 of EC50	0.08
COc1cc(CNC(=O)CCCCCC(O)C(C)C)ccc1O (stereo not drawn) [compound 34, N-vanillyl-7-hydroxy-8-methylnonamide]	rat TRPV1 receptor (rTRPV1) (Rattus norvegicus, UniProt O35433)	log10 of EC50	0.16
COc1cc(CNC(=O)CCCCCCCC(C)C)ccc1O [compound 4, Homodihydrocapsaicin I]	rat TRPV1 receptor (rTRPV1) (Rattus norvegicus, UniProt O35433)	log10 of EC50	-0.49
CCCCCCCCCC(=O)NCc1ccc(O)c(OC)c1 [compound 14, N-Vanillyldecanamide]	rat TRPV1 receptor (rTRPV1) (Rattus norvegicus, UniProt O35433)	log10 of EC50	-0.70
COc1cc(CNC(=O)CCCC/C=C/C(C)CO)ccc1O (stereo not drawn) [compound 22, ω-Hydroxycapsaicin]	rat TRPV1 receptor (rTRPV1) (Rattus norvegicus, UniProt O35433)	log10 of EC50	0.75

###

EC50 reference
# ASSAYED TARGET: rat TRPV1 receptor (rTRPV1) (Rattus norvegicus)
# Construct: rat TRPV1 stably expressed under doxycycline control (Tet-on) in Flp-In T-REx-293 cells (irTRPV1-FlpIn293); homotetramer
# ASSAY: cell-based

COMPOUND	UNIT STRING	EC50
COc1cc(CNC(=O)CCCC/C=C/C(C)C)cc(-c2cc(CNC(=O)CCCCCCC(C)C)cc(OC)c2O)c1O [compound 23, 6″,7″-Dihydro-5′,5‴-dicapsaicin]	µM	10.3
COc1cc(CNC(=O)CCCCC2OC2C(C)C)ccc1O (stereo not shown) [compound 32, Epicapsaicin]	µM	1.11
COc1cc(CNC(=O)CCCCCC(C)C)ccc1O [compound 11, Nordihydrocapsaicin]	µM	0.0534
COc1cc(CNC(=O)CCCCCC(=O)C(C)C)ccc1O	µM	0.602

###

pEC50 reference
# ASSAYED TARGET: rat TRPV1 receptor (rTRPV1) (Rattus norvegicus, UniProt O35433)
# Construct: rat TRPV1 stably expressed under doxycycline control (Tet-on) in Flp-In T-REx-293 cells (irTRPV1-FlpIn293); homotetramer
# ASSAY: Fluo-4 calcium influx assay, FDSS, irTRPV1-FlpIn293 cells
# Assay type: cell-based
# CONDITION DETAILS: read-out: EC50
pEC50: −log10 of the molar value.

COMPOUND	ASSAYED TARGET	pEC50
COc1cc(CNC(=O)CC/C=C/C(C)C)ccc1O	rat TRPV1 receptor (rTRPV1) (Rattus norvegicus, UniProt O35433)	6.09
COc1cc(CNC(=O)CCCCCC(=O)C(C)C)ccc1O	rat TRPV1 receptor (rTRPV1) (Rattus norvegicus, UniProt O35433)	6.25
COc1cc(CNC(=O)CCCC/C=C/C(C)C)ccc1O[C@@H]1O[C@H](CO)[C@@H](O)[C@H](O)[C@H]1O [compound 24, Capsaicin β-D-glucopyranoside]	rat TRPV1 receptor (rTRPV1) (Rattus norvegicus, UniProt O35433)	5.33
COc1cc(CNC(=O)CCCCCCCC(C)O)ccc1O (stereo not shown) [compound 33, N-vanillyl-9-hydroxydecanamide]	rat TRPV1 receptor (rTRPV1) (Rattus norvegicus, UniProt O35433)	5.20
CCCCCCCC/C=C\CCCCCCCC(=O)NCc1ccc(O)c(OC)c1	rat TRPV1 receptor (rTRPV1) (Rattus norvegicus, UniProt O35433)	6.92
COc1cc(CNC(=O)CC(C)C)ccc1O	rat TRPV1 receptor (rTRPV1) (Rattus norvegicus, UniProt O35433)	5.55
COc1cc(CNC(=O)CC/C=C/C=C/C(C)C)ccc1O [compound 16, N-vanillyl-4E,6E-dien-8-methylnonanamide]	rat TRPV1 receptor (rTRPV1) (Rattus norvegicus, UniProt O35433)	6.85
